Tested on: RXF 393
Test: NCI tumour cell line growth inhibition, 48 h
Active and inactive are the calls of the source. Rule as the data show it: active = GI50 up to about 1.1 µM and inactive = higher.
Use one of these outcomes when replying: active, inactive

Test call, this molecule: `CC[C@@H](C)[C@H]([C@H](CC(=O)N1CCC[C@@H]1[C@@H](OC)[C@H](C)C(=O)N[C@H](Cc1ccccc1)c1nccs1)OC)N(C)C(=O)[C@H](NC(=O)[C@@H](C(C)C)N(C)C)C(C)C`
active

# repeat for CC(=O)N1C(OC(C)C)CC(C)N1c1ccccc1 (stereo not given)
inactive

# repeat for `OC/C=C/[C@H](OCc1ccccc1)[C@H](/C=C/CO)OCc1ccccc1`
inactive

----------
System: UACC-62
Assay: NCI tumour cell line growth inhibition, 48 h
Calls of active or inactive are those of the source. Rule as the data show it: active = GI50 up to about 1.1 µM and inactive = higher.
QUANTITY MEASURED: GI50

Here are 3 molecules together with their reported answers.
O=C1CS(=O)(=O)C(c2cccc(Oc3ccccc3)c2)N1c1ccccc1 (centres undefined): 12.4 µM (inactive)
COc1cc2c(cc1C1COc3cc4occc4cc3C1=O)OCO2 (centres undefined): > 100 µM (inactive)
CN(CCCCCl)P(=O)(OCc1ccc([N+](=O)[O-])o1)OC[C@H]1O[C@@H](n2cc(F)c(=O)[nH]c2=O)C[C@@H]1O (some centres undefined): 0.437 µM (active)

Param item = `O=C(c1ccccc1)c1nnn(Cc2cccc(Cl)c2)c1C(=O)c1ccccc1` ; retrieve measured GI50.
> 100 µM (inactive)

# repeat for `CCOC(=O)/N=C(\N)SCc1ccccc1`
> 100 µM (inactive)

# repeat for `CCOC(=O)c1c(SC(=O)c2cc(OC)c(OC)c(OC)c2)n(-c2ccccc2)c(=S)n(-c2ccccc2)c1=O`
> 100 µM (inactive)

# repeat for `CC(C)/C=N\n1c(N)c(C#N)c(C#N)c1C(C)C`
12.3 µM (inactive)

# repeat for O=C1CC2CC=C[C@H]3c4cc5c(cc4C(=O)N1C23)OCO5 (some centres undefined)
> 50 µM (inactive)

# repeat for COC1/C=C/O[C@@]2(C)Oc3c(C)c(O)c4c(O)c(cc(O)c4c3C2=O)NC(=O)/C(C)=C\C=C\[C@H](C)C(O)[C@@H](C)[C@@H](O)[C@@H](C)[C@H](OC(C)=O)[C@@H]1C (some centres undefined)
18.1 µM (inactive)

# repeat for `O=C1C(c2ccccc2)=C(c2ccccc2)C(c2ccc(-c3ccc(C4=C(c5ccccc5)C(=O)C(c5ccccc5)=C4c4ccccc4)cc3)cc2)=C1c1ccccc1`
> 100 µM (inactive)

# repeat for `CCOC(=O)/C=C(\C)Sc1cc(O)c2ccccc2c1O`
31.1 µM (inactive)

# repeat for `CCOCC(=O)N[C@H]1CCc2cc(OC(=O)COCC)c(OC)c(OC)c2-c2ccc(SC)c(=O)cc21`
0.0102 µM (active)

----------
Test system: LOX IMVI
Test: NCI tumour cell line growth inhibition, 48 h
The source made the active and inactive calls. Rule as the data show it: active = GI50 up to about 1.1 µM and inactive = higher.
GI50 values for the molecules below.

Here are 3 molecules together with their reported answers.
CSc1c(C(=O)Nc2ccc(C)cc2)c(N)nn1-c1ccccc1: > 100 µM (inactive)
COC(=O)N/N=C(/c1nc2ccc([N+](=O)[O-])cc2nc1O)C(O)c1ccc(OC)c(OC)c1 (stereo unspecified): 28.5 µM (inactive)
Cc1ccc(C2=Nn3c(nc4sc(C)c(C)c4c3=O)SC2)cc1: > 100 µM (inactive)

Param item = CC1CC(C)[C@H](O)C([C@H](O)CC2CC(=O)N(C)C(=O)C2)C1 (stereo partly specified) ; retrieve measured GI50.
> 100 µM (inactive)

# repeat for `CC(C)(C)c1cc(CC2C(=O)c3ccccc3C2=O)cc(C(C)(C)C)c1O`
3.81 µM (inactive)

# repeat for `COc1ccccc1NS(=O)(=O)c1cc(C(C)(C)C)ccc1OCCOc1ccc(C(C)(C)C)cc1S(=O)(=O)Nc1ccccc1OC`
> 100 µM (inactive)
